tested on: L1210 leukemia ip in BDF1 mice, survival T/C; experiment: NCI In Vivo Anticancer Drug Screen. Data for tumor model L1210 Leukemia (intraperitoneal) in B6D2F1 (BDF1) mice; details: endpoint: mean survival time; dose: 200.0 mg/kg/injection; schedule: Q04DX003 (ip); vehicle: Klucel (hydroxypropylcellulose) (HPC); higher = longer survival
Toxic doses and inconclusive results are not listed.
As shown below, each of these molecules has a reported T/C value.

Sample answers from the record:
Tell me reported T/C for `COC(=O)c1cc(C)c(Br)c(OC)c1` , tested with L1210 leukemia ip in BDF1 mice, survival T/C. 111 % of control

And COc1cc2ccc(C(C)NCC#N)cc2cc1OC (stereo not drawn) ? 93 % of control

Thanks! And `COc1ccc(/C=C(\C#N)c2cccc3ccccc23)cc1` ? 105 % of control

Others:
I'm curious: which T/C was measured for `CNC(=O)Nc1ccccc1C(=O)OC` tested on L1210 leukemia ip in BDF1 mice, survival T/C? 97 % of control

Try this molecule next: CC(O)c1ccc(Cl)c(Cl)c1 (stereo not drawn) 109 % of control

Now consider `NOCc1cc2c(cc1Cl)OCO2` and answer again. 96 % of control

Same question for CC1CC(C)CC(NC(=O)NCCCl)C1 (stereo not drawn) please. 94 % of control

And `O=C(O)c1cc(C(=O)c2ccccn2)c2cccc(C(F)(F)F)c2n1` ? 97 % of control

Next molecule: `NSc1ccccc1[N+](=O)[O-]` 105 % of control

Repeat for the following molecule: `CCOC(=O)c1cnc(SC)nc1NNc1nc(SC)ncc1C(=O)OCC` 90 % of control

Same read-out for CC(=O)C(CCS(C)(=O)=O)c1ccccc1 (stereo not drawn) ? 97 % of control

====

test system: L1210 leukemia ip in BDF1 mice, survival T/C; assay: NCI In Vivo Anticancer Drug Screen. Data for tumor model L1210 Leukemia (intraperitoneal) in B6D2F1 (BDF1) mice; conditions: endpoint: mean survival time; dose: 400.0 mg/kg/injection; schedule: Q01DX001 (ip); vehicle: saline; higher = longer survival
Inconclusive results and toxic doses are left out.
EXPERIMENTAL_ENDPOINT: T/C

Known results for compounds:
Notebook: pull reported T/C for L1210 leukemia ip in BDF1 mice, survival T/C, entry `COc1cc2c(cc1OC)C(Cc1cc(OC)c(OC)cc1[N+](=O)[O-])=NCC2` 94 % of control

Now the compound `CC(C)(C)C(=O)CC(=O)C(C)(C)C` 102 % of control

Now consider `CC[n+]1ccc(-c2ccc(S(=O)(=O)[O-])cc2)o1` . 105 % of control

Next:
Hi! What's the reported T/C for `O=C1Nc2ccccc2C1=Nc1ccc(F)cc1` on L1210 leukemia ip in BDF1 mice, survival T/C? 94 % of control

How about this compound: `CNC(=O)Nc1nc2ccccc2[nH]1` 100 % of control

// query: `O=C(O)/C=C/c1cc(Br)sc1Br` 88 % of control

Subsequent entry: CC1([N+](=O)[O-])COP(=O)(OCCc2ccccc2)OC1 (stereo unspecified) 98 % of control

Follow-up item: `Cc1ccc(C)c(NS(C)(=O)=O)c1` 102 % of control

====

test system: L1210 leukemia ip in BDF1 mice, survival T/C; assay: NCI In Vivo Anticancer Drug Screen. Data for tumor model L1210 Leukemia (intraperitoneal) in B6D2F1 (BDF1) mice; details: endpoint: mean survival time; dose: 75.0 mg/kg/injection; schedule: Q01DX001 (ip); vehicle: acetone; higher = longer survival
Inconclusive results and toxic doses are left out.
Here the recorded T/C is given for each entry.

Solved entries (count: 3):
Return reported T/C; argument: S=C(Nc1ccccc1)N1CCN2CCCCC2C1 (centres undefined) 100 % of control

Lookup `ClC12CCC(Cl)(CC1)CC2` 103 % of control

Try `CC(C)=CCCC/C=N/NC(N)=O` next. 102 % of control

Pending compound:
Field request: T/C | item: `CCOC(=O)C(=N\Nc1ccccc1OC)/C(C)=N\NC(N)=S` 93 % of control

Data provenance: PubChem BioAssay AID248
